target: T1, human TMEM106B (human, UniProt Q9NUM4 2-274); test: FACS HEK+huTMEM, 1.0 ug/ml
T1 construct: Full-length, on transiently transfected HEK293 cells, or natively expressed on HeLa, U251 and A549 cells; also called huTMEM106B; huTMEM
Reported MFI by item:
readoutType: MFI

anti-TMEM106B antibody TM-14 (antibody, V domains shown, mouse IgG from hybridoma) VH: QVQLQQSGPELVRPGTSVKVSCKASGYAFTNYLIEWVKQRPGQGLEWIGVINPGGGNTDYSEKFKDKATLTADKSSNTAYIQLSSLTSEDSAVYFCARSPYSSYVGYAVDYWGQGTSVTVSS VL: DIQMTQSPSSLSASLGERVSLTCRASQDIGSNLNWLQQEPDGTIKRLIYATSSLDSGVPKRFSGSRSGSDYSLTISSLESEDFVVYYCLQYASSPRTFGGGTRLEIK    680
anti-TMEM106B antibody TM-49 (antibody, V domains shown, mouse IgG from hybridoma) VH: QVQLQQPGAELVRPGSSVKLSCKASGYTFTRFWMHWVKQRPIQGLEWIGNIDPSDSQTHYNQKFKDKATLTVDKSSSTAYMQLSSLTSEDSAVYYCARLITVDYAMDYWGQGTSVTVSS VL: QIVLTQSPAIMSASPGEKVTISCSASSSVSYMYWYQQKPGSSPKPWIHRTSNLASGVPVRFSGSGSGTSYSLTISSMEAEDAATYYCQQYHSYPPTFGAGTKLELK    15700
